Test system: 855422-203-R-J1-PDC spheroids with HUVEC/MSC, viability
assay: Anticancer human tumor 855422-203-R-J1-PDC patient-derived bladder carcinoma cell line growth inhibition [PI3K]
conditionDetails: second compound 1 µM; first compound 0.1 µM; stronger effect = lower value
Overview of recorded viability, T/C for various compounds
Express it in %; write the number only.

Some solved entries appear below for comparison.
>>> assayresult("CC(Cn1ccc(-c2ccc(C#N)c(Cl)c2)n1)NC(=O)c1cc(C(C)O)[nH]n1 (stereo unspecified) + CC(Nc1ncnc2nc[nH]c12)c1cc2cccc(Cl)c2c(=O)n1-c1ccccc1")
108
>>> assayresult("CCCS(=O)(=O)Nc1ccc(F)c(C(=O)c2c[nH]c3ncc(-c4ccc(Cl)cc4)cc23)c1F + CC(Nc1ccc2c(c1)OCCn1cc(N3C(=O)OCC3C(F)F)nc1-2)C(N)=O")
36.5
>>> assayresult("Cn1ncnc1[C@H]1c2n[nH]c(=O)c3cc(F)cc(c23)N[C@@H]1c1ccc(F)cc1 + Cc1nc(NC(=O)N2CCCC2C(N)=O)sc1-c1ccnc(C(C)(C)C(F)(F)F)c1")
68.3
>>> assayresult("Cn1nccc1Nc1nccc(-c2ccn(C(CO)c3ccc(Cl)c(F)c3)c(=O)c2)n1 (stereo unspecified) + Cc1nc(NC(=O)N2CCCC2C(N)=O)sc1-c1ccnc(C(C)(C)C(F)(F)F)c1")
70.1
>>> assayresult("CNC(=O)c1ccc(N2C(=S)N(c3ccc(C#N)c(C(F)(F)F)c3)C(=O)C2(C)C)cc1F + Cc1nc(NC(=O)N2CCCC2C(N)=O)sc1-c1ccnc(C(C)(C)C(F)(F)F)c1")
75.7

What measured viability, T/C goes with Cn1ncnc1[C@H]1c2n[nH]c(=O)c3cc(F)cc(c23)N[C@@H]1c1ccc(F)cc1 + CC(Nc1ccc2c(c1)OCCn1cc(N3C(=O)OCC3C(F)F)nc1-2)C(N)=O ? 27.2

Also check Cn1ncnc1[C@H]1c2n[nH]c(=O)c3cc(F)cc(c23)N[C@@H]1c1ccc(F)cc1 + COc1c(OCCCN2CCOCC2)ccc2c3n(c(=NC(=O)c4cnc(N)nc4)nc12)CCN3 3.2

Also check CC(=O)c1c(C)c2cnc(Nc3ccc(N4CCNCC4)cn3)nc2n(C2CCCC2)c1=O + COc1c(OCCCN2CCOCC2)ccc2c3n(c(=NC(=O)c4cnc(N)nc4)nc12)CCN3 3.64

Also check CCCS(=O)(=O)Nc1ccc(F)c(C(=O)c2c[nH]c3ncc(-c4ccc(Cl)cc4)cc23)c1F + Cc1nc(NC(=O)N2CCCC2C(N)=O)sc1-c1ccnc(C(C)(C)C(F)(F)F)c1 74

Also check CC1(C)CCC(Nc2ncc(C(F)(F)F)c(-c3c[nH]c4c(P(C)(C)=O)c(C#N)ccc34)n2)CN1 (stereo unspecified) + CC(Nc1ncnc2nc[nH]c12)c1cc2cccc(Cl)c2c(=O)n1-c1ccccc1 28.2

Also check C#Cc1c(F)ccc2cc(O)cc(-c3ncc4c(N5CC6CCC(C5)N6)nc(OCC56CCCN5CC(F)C6)nc4c3F)c12 (stereo unspecified) + Cc1nc(NC(=O)N2CCCC2C(N)=O)sc1-c1ccnc(C(C)(C)C(F)(F)F)c1 78.3

* * *

System: 855422-203-R-J1-PDC spheroids with HUVEC/MSC, viability
assay: Anticancer human tumor 855422-203-R-J1-PDC cell line growth inhibition [PI3K];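 further: agents incubated with spheroids for one week before read-out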;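 on viability, T/C: 100% = DMSO vehicle-treated control wells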
conditionDetails: second compound 0.01 µM; first compound 0.316 µM; stronger effect = lower value
Note that class boundaries on viability, T/C are class A (below 70%), class B (70% to below 90%), class C (90% or more)

Examples from the recorded data:
>>> assignedclass("C#Cc1c(F)ccc2cc(O)cc(-c3ncc4c(N5CC6CCC(C5)N6)nc(OCC56CCCN5CC(F)C6)nc4c3F)c12 (stereo unspecified) + COc1c(OCCCN2CCOCC2)ccc2c3n(c(=NC(=O)c4cnc(N)nc4)nc12)CCN3")
"class B"
>>> assignedclass("CCN1CCN(Cc2ccc(Nc3ncc(F)c(-c4cc(F)c5nc(C)n(C(C)C)c5c4)n3)nc2)CC1 + COc1c(OCCCN2CCOCC2)ccc2c3n(c(=NC(=O)c4cnc(N)nc4)nc12)CCN3")
"class A"
>>> assignedclass("Cn1nccc1Nc1nccc(-c2ccn(C(CO)c3ccc(Cl)c(F)c3)c(=O)c2)n1 (stereo unspecified) + COc1c(OCCCN2CCOCC2)ccc2c3n(c(=NC(=O)c4cnc(N)nc4)nc12)CCN3")
"class B"
>>> assignedclass("C=CC(=O)N1CCN(c2nc(=O)n(-c3c(C)ccnc3C(C)C)c3nc(-c4c(O)cccc4F)c(F)cc23)C(C)C1 (stereo unspecified) + CC(Nc1ccc2c(c1)OCCn1cc(N3C(=O)OCC3C(F)F)nc1-2)C(N)=O")
"class C"
>>> assignedclass("CC(C)NCC(C(=O)N1CCN(c2ncnc3c2C(C)CC3O)CC1)c1ccc(Cl)cc1 (stereo unspecified) + COc1c(OCCCN2CCOCC2)ccc2c3n(c(=NC(=O)c4cnc(N)nc4)nc12)CCN3")
"class A"
>>> assignedclass("CCN1CCN(Cc2ccc(Nc3ncc(F)c(-c4cc(F)c5nc(C)n(C(C)C)c5c4)n3)nc2)CC1 + CC(Nc1ccc2c(c1)OCCn1cc(N3C(=O)OCC3C(F)F)nc1-2)C(N)=O")
"class A"
>>> assignedclass("CC1(C)CCC(CN2CCN(c3ccc(C(=O)NS(=O)(=O)c4ccc(NCC5CCOCC5)c([N+](=O)[O-])c4)c(Oc4cnc5[nH]ccc5c4)c3)CC2)=C(c2ccc(Cl)cc2)C1 + CC(Nc1ccc2c(c1)OCCn1cc(N3C(=O)OCC3C(F)F)nc1-2)C(N)=O")
"class C"
>>> assignedclass("CC1(C)CCC(Nc2ncc(C(F)(F)F)c(-c3c[nH]c4c(P(C)(C)=O)c(C#N)ccc34)n2)CN1 (stereo unspecified) + COc1c(OCCCN2CCOCC2)ccc2c3n(c(=NC(=O)c4cnc(N)nc4)nc12)CCN3")
"class A"

Each compound maps to one class by viability, T/C. Which class for Cn1ncc(Cl)c1-c1cc(C(=O)NC(CN)Cc2cccc(F)c2)sc1Cl (stereo unspecified) + COc1c(OCCCN2CCOCC2)ccc2c3n(c(=NC(=O)c4cnc(N)nc4)nc12)CCN3 ? class A

Also check CNC(=O)c1ccc(N2C(=S)N(c3ccc(C#N)c(C(F)(F)F)c3)C(=O)C2(C)C)cc1F + COc1c(OCCCN2CCOCC2)ccc2c3n(c(=NC(=O)c4cnc(N)nc4)nc12)CCN3 class B

Also check Cn1nccc1Nc1nccc(-c2ccn(C(CO)c3ccc(Cl)c(F)c3)c(=O)c2)n1 (stereo unspecified) + CC(Nc1ccc2c(c1)OCCn1cc(N3C(=O)OCC3C(F)F)nc1-2)C(N)=O class C

Also check CC(Cn1ccc(-c2ccc(C#N)c(Cl)c2)n1)NC(=O)c1cc(C(C)O)[nH]n1 (stereo unspecified) + CC(Nc1ccc2c(c1)OCCn1cc(N3C(=O)OCC3C(F)F)nc1-2)C(N)=O class C

* * *

Test system: 855422-203-R-J1-PDC spheroids with HUVEC/MSC, viability
assay: Anticancer human tumor 855422-203-R-J1-PDC cell line growth inhibition [PI3K];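 further: agents incubated with spheroids for one week before read-out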;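 on viability, T/C: 100% = DMSO vehicle-treated control wells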
conditionDetails: second compound 1 µM; first compound 0.1 µM; stronger effect = lower value
From the text: Combinatorial screen of targeted agents with the PI3K inhibitors inavolisib, alpelisib, duvelisib, and copanlisib in multi-cell type tumor spheroids A high-throughput screen of multi-cell type tumor spheroids was designed to identify active combinations of targeted small molecules and PI3K pathway inhibitors. […] Compounds. […] If the clinical Cmax for an agent had not been determined, the highest concentration tested was 10 microM. […]
Overview of recorded viability, T/C for various molecules
Express it in %; write the number only.

Some solved entries appear below for comparison.
>>> assayresult("CC(C)n1nc(-c2ccc3oc(N)nc3c2)c2c(N)ncnc21 + CC(Nc1ccc2c(c1)OCCn1cc(N3C(=O)OCC3C(F)F)nc1-2)C(N)=O")
6.71
>>> assayresult("CC(C)n1nc(-c2ccc3oc(N)nc3c2)c2c(N)ncnc21 + CC(Nc1ncnc2nc[nH]c12)c1cc2cccc(Cl)c2c(=O)n1-c1ccccc1")
14.1

Okay, now this molecule:
What measured viability, T/C goes with CNC(=O)c1ccc(N2C(=S)N(c3ccc(C#N)c(C(F)(F)F)c3)C(=O)C2(C)C)cc1F + CC(Nc1ccc2c(c1)OCCn1cc(N3C(=O)OCC3C(F)F)nc1-2)C(N)=O ? 36.4

* * *

Test system: 855422-203-R-J1-PDC spheroids with HUVEC/MSC, viability
assay: Anticancer human tumor 855422-203-R-J1-PDC cell line growth inhibition [PI3K];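 further: agents incubated with spheroids for one week before read-out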
conditionDetails: curve of first compound; second compound 0.316 µM
valueType: IC50

Some solved entries appear below for comparison.
>>> assayresult("C=CC(=O)N1CCN(c2nc(=O)n(-c3c(C)ccnc3C(C)C)c3nc(-c4c(O)cccc4F)c(F)cc23)C(C)C1 (stereo unspecified) + Cc1nc(NC(=O)N2CCCC2C(N)=O)sc1-c1ccnc(C(C)(C)C(F)(F)F)c1")
"> 10000 nM"
>>> assayresult("CC(=O)c1c(C)c2cnc(Nc3ccc(N4CCNCC4)cn3)nc2n(C2CCCC2)c1=O + Cc1nc(NC(=O)N2CCCC2C(N)=O)sc1-c1ccnc(C(C)(C)C(F)(F)F)c1")
"> 100 nM"
>>> assayresult("CNC(=O)c1ccc(N2C(=S)N(c3ccc(C#N)c(C(F)(F)F)c3)C(=O)C2(C)C)cc1F + CC(Nc1ncnc2nc[nH]c12)c1cc2cccc(Cl)c2c(=O)n1-c1ccccc1")
"> 10000 nM"
>>> assayresult("CC(Cn1ccc(-c2ccc(C#N)c(Cl)c2)n1)NC(=O)c1cc(C(C)O)[nH]n1 (stereo unspecified) + Cc1nc(NC(=O)N2CCCC2C(N)=O)sc1-c1ccnc(C(C)(C)C(F)(F)F)c1")
"> 10000 nM"
>>> assayresult("CC(C)n1nc(-c2ccc3oc(N)nc3c2)c2c(N)ncnc21 + CC(Nc1ccc2c(c1)OCCn1cc(N3C(=O)OCC3C(F)F)nc1-2)C(N)=O")
"6.08 nM"

Okay, now this compound:
Look up IC50 with 855422-203-R-J1-PDC spheroids with HUVEC/MSC, viability for this compound: CC1(C)CCC(Nc2ncc(C(F)(F)F)c(-c3c[nH]c4c(P(C)(C)=O)c(C#N)ccc34)n2)CN1 (stereo unspecified) + CC(Nc1ncnc2nc[nH]c12)c1cc2cccc(Cl)c2c(=O)n1-c1ccccc1 < 31.6 nM
